species: Canis familiaris; experiment: Compound was evaluated for average maximum percent decrease in renal vascular resistance in dogs; assay type: functional, Canis lupus familiaris
Quantity kind: Decrease RVR

INSERT INTO assay_data (compound, result) VALUES
  ('Br.C=CCN1CCc2c(cc(O)c(O)c2Cl)C(c2cccc(Cl)c2)C1 (centres undefined)', '38%'),
  ('Br.OCCN1CCc2c(cc(O)c(O)c2Cl)C(c2ccccc2)C1 (centres undefined)', '42%'),
  ('Br.Cc1cccc(C2CNCCc3c2cc(O)c(O)c3Cl)c1 (centres undefined)', '56%'),
  ('Br.Oc1cccc(C2CNCCc3c2cc(O)c(O)c3Cl)c1 (centres undefined)', '49%');

---

assay: Selectivity ratio of Compound as ratio of ED15 relative to iliac vascular resistance(IVR) ED30; format: functional
Quantity kind: Ratio

INSERT INTO results (compound, comparative_sign, result_number) VALUES
  ('CS(=O)(=O)O.Oc1ccc(C2CNCCc3c2cc(O)c(O)c3Cl)cc1 (stereo not drawn) [FENOLDOPAM MESYLATE]', '>', 6070),
  ('NCCc1ccc(O)c(O)c1', '=', 56),
  ('Cl.Oc1cc2c(c(Cl)c1O)CCN(Cc1ccco1)CC2c1ccccc1 (stereo not drawn)', '>', 6070),
  ('Br.OCCN1CCc2c(cc(O)c(O)c2Cl)C(c2ccccc2)C1 (stereo not drawn)', '=', 929),
  ('Br.Cc1cccc(C2CNCCc3c2cc(O)c(O)c3Cl)c1 (stereo not drawn)', '=', 1),
  ('Br.Oc1cc2c(c(Cl)c1O)CCNCC2c1cc(Cl)c(O)c(Cl)c1 (stereo not drawn)', '>', 37),
  ('Br.C=CCN1CCc2c(cc(O)c(O)c2Cl)C(c2cccc(Cl)c2)C1 (stereo not drawn)', '>', 6070),
  ('Br.Oc1cc(C2CNCCc3c2cc(O)c(O)c3Cl)ccc1Cl (stereo not drawn)', '>', 249),
  ('Br.Oc1ccc(C2CNCCc3c2cc(O)c(O)c3Cl)cc1Br (stereo not drawn)', '=', 15),
  ('Br.Oc1ccc(C2CNCCc3c2cc(O)c(O)c3Cl)cc1Cl (stereo not drawn)', '=', -1),
  ('Br.CCN1CCc2c(cc(O)c(O)c2Cl)C(c2ccccc2)C1 (stereo not drawn)', '=', 0.1),
  ('Br.Oc1cc2c(c(Cl)c1O)CCNCC2c1cccc(C(F)(F)F)c1 (stereo not drawn)', '=', 10),
  ('Br.Oc1cccc(C2CNCCc3c2cc(O)c(O)c3Cl)c1 (stereo not drawn)', '=', 34);

---

species on record: Rattus norvegicus; experiment: Adenylase cyclase activity in rat striatal membranes at the concentration of 10e-5; format: functional; details: Striatum, Membrane
The label is Y for DA response below 60% and N for DA response equal to or exceeding 60%.

INSERT INTO measurements (molecule, assigned_class) VALUES
  ('Br.Oc1cc2c(c(Cl)c1O)CCNCC2c1cccc(C(F)(F)F)c1 (centres undefined)', 'N'),
  ('Br.C=CCN1CCc2c(cc(O)c(O)c2Cl)C(c2cccc(Cl)c2)C1 (centres undefined)', 'N'),
  ('Br.Cc1cccc(C2CN(C)CCc3c2cc(O)c(O)c3Cl)c1 (centres undefined)', 'Y'),
  ('Br.CCN1CCc2c(cc(O)c(O)c2Cl)C(c2ccccc2)C1 (centres undefined)', 'Y'),
  ('Br.Oc1cc2c(c(Cl)c1O)CCNCC2c1ccc(Cl)cc1 (centres undefined)', 'N'),
  ('Br.C=CCN1CCc2c(cc(O)c(O)c2Cl)C(c2cccc(C)c2)C1 (centres undefined)', 'N'),
  ('Cl.Oc1cc2c(c(Cl)c1O)CCN(Cc1cccs1)CC2c1ccccc1 (centres undefined)', 'N'),
  ('Br.CCCCN1CCc2c(cc(O)c(O)c2Cl)C(c2ccccc2)C1 (centres undefined)', 'N'),
  ('Br.Cc1ccccc1C1CNCCc2c1cc(O)c(O)c2Cl (centres undefined)', 'Y'),
  ('Br.Oc1cc2c(c(Cl)c1O)CCNCC2c1cccc(Cl)c1 (centres undefined)', 'N'),
  ('Br.CN1CCc2c(cc(O)c(O)c2Cl)C(c2cccc(Cl)c2)C1 (centres undefined)', 'Y'),
  ('Br.Cc1cccc(C2CNCCc3c2cc(O)c(O)c3Cl)c1 (centres undefined)', 'N'),
  ('Cl.Oc1cc2c(c(Cl)c1O)CCN(Cc1ccco1)CC2c1ccccc1 (centres undefined)', 'N'),
  ('Br.Cc1ccc(C2CNCCc3c2cc(O)c(O)c3Cl)cc1 (centres undefined)', 'Y');

---

organism: Canis familiaris; assay: Renal vascular resistance was calculated as the ratio of the mean arterial blood pressure / mean renal blood flow; Significant activity; format: functional, organism-based; settings: Canis lupus familiaris
Quantity kind: RVR

INSERT INTO results (compound, result) VALUES
  ('Cl.Oc1cc2c(c(Cl)c1O)CCN(Cc1cccs1)CC2c1ccccc1 (centres undefined)', 'Significant activity'),
  ('Br.C=CCN1CCc2c(cc(O)c(O)c2Cl)C(c2ccc(Cl)c(O)c2)C1 (centres undefined)', 'Significant activity'),
  ('Br.Oc1cccc(C2CNCCc3c2cc(O)c(O)c3Cl)c1 (centres undefined)', 'Significant activity'),
  ('Br.Oc1cc2c(c(Cl)c1O)CCNCC2c1cc(Cl)c(O)c(Cl)c1 (centres undefined)', 'Significant activity');

---

system: Canis familiaris; test: Compound was evaluated for determining renal vascular resistance(iv) in dogs; assay type: functional, Canis lupus familiaris
Listed compounds paired with reported RVR ED15
Quantity kind: RVR ED15 (µg/kg)

INSERT INTO measurements (compound, quantity_kind, unit_annotation, result_number) VALUES
  ('Br.Oc1cc2c(c(Cl)c1O)CCNCC2c1cc(Cl)c(O)c(Cl)c1 (stereo unspecified)', 'RVR ED15', 'µg/kg', 165),
  ('Br.Oc1ccc(C2CNCCc3c2cc(O)c(O)c3Cl)cc1Br (stereo unspecified)', 'RVR ED15', 'µg/kg', 2),
  ('Br.Oc1cc2c(c(Cl)c1O)CCNCC2c1cccc(C(F)(F)F)c1 (stereo unspecified)', 'RVR ED15', 'µg/kg', 8),
  ('Cl.Oc1cc2c(c(Cl)c1O)CCN(Cc1ccco1)CC2c1ccccc1 (stereo unspecified)', 'RVR ED15', 'µg/kg', 200),
  ('Br.OCCN1CCc2c(cc(O)c(O)c2Cl)C(c2ccccc2)C1 (stereo unspecified)', 'RVR ED15', 'µg/kg', 4.5),
  ('Br.Oc1cccc(C2CNCCc3c2cc(O)c(O)c3Cl)c1 (stereo unspecified)', 'RVR ED15', 'µg/kg', 0.35);

---

// reported RVR ED15 per item
test system: Canis familiaris; experiment: Compound was evaluated for determining renal vascular resistance(iv) in dogs; type: functional, Canis lupus familiaris
Quantity kind: RVR ED15 (mg/kg)

INSERT INTO results (molecule, experimental_target, result_number) VALUES
  ('Br.CCN1CCc2c(cc(O)c(O)c2Cl)C(c2ccccc2)C1 (stereo unspecified)', 'Canis familiaris', 0.045),
  ('Br.Oc1ccc(C2CNCCc3c2cc(O)c(O)c3Cl)cc1Cl (stereo unspecified)', 'Canis familiaris', 0.099),
  ('Br.Cc1cccc(C2CNCCc3c2cc(O)c(O)c3Cl)c1 (stereo unspecified)', 'Canis familiaris', 0.015),
  ('Br.Oc1cc2c(c(Cl)c1O)CCNCC2c1ccccc1 (stereo unspecified)', 'Canis familiaris', 0.0035),
  ('Br.Oc1cc(C2CNCCc3c2cc(O)c(O)c3Cl)ccc1Cl (stereo unspecified)', 'Canis familiaris', 0.061),
  ('CS(=O)(=O)O.Oc1ccc(C2CNCCc3c2cc(O)c(O)c3Cl)cc1 (stereo unspecified) [FENOLDOPAM MESYLATE]', 'Canis familiaris', 0.0003);

---

organism: Canis familiaris; assay: Compound was evaluated for average maximum percent decrease in renal vascular resistance in dogs; assay type: functional, Canis lupus familiaris
Quantity kind: Decrease RVR (%)

INSERT INTO results (compound, result_number) VALUES
  ('Br.Oc1cc(C2CNCCc3c2cc(O)c(O)c3Cl)ccc1Cl (stereo unspecified)', 25),
  ('Br.C=CCN1CCc2c(cc(O)c(O)c2Cl)C(c2ccc(Cl)c(O)c2)C1 (stereo unspecified)', 39),
  ('CS(=O)(=O)O.Oc1ccc(C2CNCCc3c2cc(O)c(O)c3Cl)cc1 (stereo unspecified) [FENOLDOPAM MESYLATE]', 59),
  ('Cl.Oc1cc2c(c(Cl)c1O)CCN(Cc1ccco1)CC2c1ccccc1 (stereo unspecified)', 26),
  ('Br.Oc1cc2c(c(Cl)c1O)CCNCC2c1ccccc1 (stereo unspecified)', 39),
  ('Br.Oc1cc2c(c(Cl)c1O)CCNCC2c1cccc(C(F)(F)F)c1 (stereo unspecified)', 44),
  ('Br.Oc1cc2c(c(Cl)c1O)CCNCC2c1cc(Cl)c(O)c(Cl)c1 (stereo unspecified)', 18),
  ('Br.Oc1ccc(C2CNCCc3c2cc(O)c(O)c3Cl)cc1Cl (stereo unspecified)', 56),
  ('NCCc1ccc(O)c(O)c1', 36),
  ('Br.CCN1CCc2c(cc(O)c(O)c2Cl)C(c2ccccc2)C1 (stereo unspecified)', 16),
  ('Br.Oc1ccc(C2CNCCc3c2cc(O)c(O)c3Cl)cc1Br (stereo unspecified)', 26);
